// values below are reported Emax, %, Steroid Alone
system.name: CatSper (Homo sapiens, UniProt Q7RTX7+Q86XQ3+Q8NEC5+Q96P56)
protocol.details: Human sperm calcium influx assay, activation
Type: cell-based
reported.conditions: percent of response to saturating PROG (3 µM)
Your answer should be a plain number; it is taken to be in %.

Known Emax, %, Steroid Alone results, listed for orientation:
- molecule: "CC(=O)[C@H]1CC[C@H]2[C@@H]3C[C@@H](O)C4=CC(=O)CC[C@]4(C)[C@H]3CC[C@]12C [compound 21, 6β-hydroxyprogesterone]"
  recorded.result: 116
- molecule: "CC(=O)[C@H]1CC[C@H]2[C@@H]3CC[C@@H]4C[C@H](O)CC[C@]4(C)[C@H]3CC[C@]12C"
  recorded.result: 102

Q. Given the entry CC(=O)[C@H]1[C@H](O)C[C@H]2[C@@H]3CCC4=CC(=O)CC[C@]4(C)[C@H]3CC[C@@]21C [compound 28, 16α-hydroxyprogesterone] , report its measured Emax, %, Steroid Alone.
A. 106

* * *

system.name: CatSper (Homo sapiens, UniProt Q7RTX7+Q86XQ3+Q8NEC5+Q96P56)
Assay type: cell-based
reported.conditions: pIC50, inhibition of l-sirenin-induced calcium influx, opener 3 µM l-sirenin (EC80); human sperm; mean ±SD
# IC50 annotations
Quick note: give the figure in µM, leave out the unit.

Reference set (3 entries):
- molecule: "COCC(=O)O[C@]1(CCN(C)CCCc2nc3ccccc3[nH]2)CCc2cc(F)ccc2[C@@H]1C(C)C [mibefradil]"
  IC50, µM: 8.13
- molecule: "C[C@]12CCC(=O)C=C1CC[C@@H]1[C@@H]2[C@@H](O)C[C@]2(C=O)[C@@H](C(=O)CO)CC[C@@H]12 [compound 6, aldosterone]"
  IC50, µM: 61.7
- molecule: "C#C[C@]1(O)CC[C@H]2[C@@H]3CCC4=CC(=O)CC[C@@H]4[C@H]3CC[C@@]21CC [compound 5, levonorgestrel]"
  IC50, µM: 81.3

# context switch: different molecule, same IC50
Q. Look up IC50: CC(=O)O[C@]1(C(C)=O)CC[C@H]2[C@@H]3C[C@H](C)C4=CC(=O)CC[C@]4(C)[C@H]3CC[C@@]21C [compound 4, medroxyprogesterone acetate]
A. 6.17

* * *

// values below are reported EC50
system.name: CatSper (Homo sapiens, UniProt Q7RTX7+Q86XQ3+Q8NEC5+Q96P56)
protocol.details: Human sperm calcium influx assay, activation
Assay type: cell-based
reported.conditions: pEC50, calcium influx, Steroid Alone, human sperm; mean ±SD
Could you give me the number in µM? Just the number is fine.

Example entries and their recorded answers appear below.
- compound: "CC#C[C@]1(O)CC[C@H]2[C@@H]3CCC4=CC(=O)CCC4=C3[C@@H](c3ccc(N(C)C)cc3)C[C@@]21C [compound 33, mifepristone (RU-486)]"
  system.name: "CatSper (Homo sapiens, UniProt Q7RTX7+Q86XQ3+Q8NEC5+Q96P56)"
  EC50, µM: 4.68
- compound: "C[C@]12CCC(=O)C=C1[C@@H]1C[C@@H]1[C@H]1[C@@H]3[C@@H]4C[C@@H]4[C@@]4(CCC(=O)O4)[C@@]3(C)CC[C@@H]12 [compound 31, drospirenone]"
  system.name: "CatSper (Homo sapiens, UniProt Q7RTX7+Q86XQ3+Q8NEC5+Q96P56)"
  EC50, µM: 0.525
- compound: "CC(=O)[C@H]1CC[C@H]2[C@@H]3CCC4=CC(=O)CC[C@]4(C)[C@H]3CC[C@]12C [compound 1, progesterone]"
  system.name: "CatSper (Homo sapiens, UniProt Q7RTX7+Q86XQ3+Q8NEC5+Q96P56)"
  EC50, µM: 0.00372
- compound: "CC(=O)[C@H]1CC[C@H]2[C@@H]3C[C@@H](C)[C@@]4(O)CC(=O)CC[C@]4(C)[C@H]3CC[C@]12C [compound 22, 5α-hydroxy-6β-methylpregnan-3,20-dione]"
  system.name: "CatSper (Homo sapiens, UniProt Q7RTX7+Q86XQ3+Q8NEC5+Q96P56)"
  EC50, µM: 5.01

Q. Query EC50 on CatSper (Homo sapiens, UniProt Q7RTX7+Q86XQ3+Q8NEC5+Q96P56) for CC(=O)C1(O)CCC2C3CCC4=CC(=O)CCC4(C)C3CCC21C (stereo not drawn) [compound 25, 17α-hydroxyprogesterone]
A. 0.0105

Q. Please state recorded EC50 (tested on CatSper (Homo sapiens, UniProt Q7RTX7+Q86XQ3+Q8NEC5+Q96P56)) of CC(=O)[C@@]1(O)CC[C@H]2[C@@H]3CCC4=CC(=O)CCC4=C3[C@@H](c3ccc(N(C)C)cc3)C[C@@]21C [compound 32, ulipristal]
A. 3.55
